target: Autotaxin (Homo sapiens, UniProt Q13822)
Readout name: IC50 (µM)

CCCOC(=O)c1ccc(COc2ccccc2/C=C2/CC(=O)N(c3cccc(Cl)c3)C2=O)cc1	0.32

P: NC(=O)c1ccc(COc2ccccc2/C=C2/CC(=O)N(c3cccc(Cl)c3)C2=O)cc1
Q: O=C(Oc1ccccc1)c1ccc(COc2ccccc2/C=C2/CC(=O)N(c3cccc(Cl)c3)C2=O)cc1
Req: Select the item with the higher value of IC50 from the options P and Q listed. Give the label under which the chosen entry appears.
Resp: Q
(Q: 2.04 µM, P: 0.24 µM)
